Origin of the recorded values: paper PMC10584170

# Test system: P. falciparum female gametocytes
# protocol-notes: P. falciparum Dual Gamete Formation Assay (PfDGFA), female readout (Pfs25-positive female gametes)
# Assay type: cell-based, Plasmodium falciparum NF54
# condition-summary: 2µM, 24h preincubation with gametocytes prior to induction of gametogenesis; replicate R4
Kindly return Y if reported % inhibition female (individual replicates) R4 is no lower than 8%; return N if it is lower.

molecule	system-tested	label-class
CN1CCC(N2CCN(Cc3cccc(-c4ccc(-c5nc6cc(F)ccc6[nH]5)cc4)c3)CC2)CC1.O=C(O)C(F)(F)F	P. falciparum female gametocytes	Y
COc1ccc2c(c1)nc(CNC(=N)N)n2Cc1ccc(Cl)cc1.Cl	P. falciparum female gametocytes	N
CN(CCN)Cc1ccc(-c2ccc(-c3nc4cc(C(F)(F)F)ccc4[nH]3)s2)cc1.O=C(O)C(F)(F)F	P. falciparum female gametocytes	N

### Prompt Is the recorded value of % inhibition female (individual replicates) R4 equal to or greater than 8% for this molecule? Cl.Clc1ccc(CNCCCCCCCNCc2ccc(Cl)c(Cl)c2)cc1Cl
### Response Y

### Prompt Please indicate if the recorded % inhibition female (individual replicates) R4 for NC(CC1CC(=O)N1CC(=O)O)C(=O)O (stereo not drawn) meets or exceeds 8%.
### Response Y

### Prompt Evaluate COc1ccc(O)cc1Cc1cnc2nc(N)nc(N)c2c1C : % inhibition female (individual replicates) R4 at minimum 8%?
### Response Y

====

# System: P. falciparum female gametocytes
# protocol-notes: P. falciparum Dual Gamete Formation Assay (PfDGFA), female readout (Pfs25-positive female gametes)
# Format: cell-based, Plasmodium falciparum NF54
# condition-summary: PfDGFA at 2µM, 24h preincubation with gametocytes prior to induction of gametogenesis; replicate R3
# Experimental: […] The Pf DGFA was performed as described in Delves et al. 2016 [17]. […] Exflagellation was recorded by capturing 10 frames over 1 s under brightfield illumination using a x4 objective with a 1.5x zoom (effectively x6) attached to an automated Nikon Ti fluorescence microscope. […] The plates were then returned to the microscope and female gametes imaged at x6 using fluorescence microscopy. […]
Each entry below lists one item and its recorded % inhibition female (individual replicates) R3 value.
Report the figure in % without appending any unit label.

See these solved cases before continuing.
chem-smiles	reported
CC(=O)Nc1cccc(Nc2nccc(-c3c(-c4cccc(NC(=O)c5c(F)cccc5F)c4)nn4ncccc34)n2)c1	-25.4
CC1(C)N=C(NC(=O)c2ccc([N+](=O)[O-])cc2)N=C(N)N1OCc1ccc2ccccc2c1	-19.7

Consider the additional compound presented here.
### Prompt For the compound CC1(C)N=C(N)N=C(N)N1c1ccc(Cl)c(Cl)c1.Cl , report % inhibition female (individual replicates) R3.
### Response -6.4

====

# System: P. falciparum female gametocytes
# protocol-notes: P. falciparum Dual Gamete Formation Assay (PfDGFA), female readout (Pfs25-positive female gametes)
# Format: cell-based, Plasmodium falciparum NF54
# condition-summary: 2µM, 24h preincubation with gametocytes prior to induction of gametogenesis; replicate R3
Below, each entry is listed alongside its reported % inhibition female (individual replicates) R3.
Reply with just the number (in %).

Here is how some compounds turned out for % inhibition female (individual replicates) R3.
compound	value-units	reported
Cl.N#Cc1c(F)cc(N2CCC(NCC[C@H](N)Cc3ccc(F)c(F)c3)CC2)cc1F	%	22.9
CC1(C)N=C(N)N=C(N)N1c1ccc(Oc2ccc(Cl)cc2)c(Cl)c1	%	16.4
O=C(/C=C/c1ccc(Cl)c(Cl)c1)N1CCC(CN2CCC(c3c[nH]c4ccncc34)CC2)CC1	%	8.2
O=C(Nc1ccc(C(=O)OCC2CCCCC2)cc1)N[C@@H](Cc1ccc(O)cc1)C(=O)NC1CCN(Cc2ccc(O)cc2)C1.O=C(O)C(F)(F)F (stereo partly drawn)	%	10.5
Cl.c1ccc2c(c1)cc(CNCCCN1CCN(CCCNCc3cc4ccccc4c4ccccc34)CC1)c1ccccc12	%	15.0
CNCCNCc1ccc(-c2ccc(-c3nc4cc(C(F)(F)F)ccc4[nH]3)cc2)cc1.O=C(O)C(F)(F)F	%	25.6

### Prompt Using the record for NCc1cccc(-c2ccccc2CNC2CCN(Cc3ccccc3)CC2)c1.O=C(O)C(F)(F)F , state its measured % inhibition female (individual replicates) R3.
### Response 3.0

### Prompt For the compound O=C(O)C(F)(F)F.O=S(=O)(NCCN1CCCC1)c1ccc(-c2cccc(CNC3Cc4ccccc4C3)c2)s1 , give its reported % inhibition female (individual replicates) R3.
### Response 15.7

### Prompt Retrieve % inhibition female (individual replicates) R3 measured for COc1ccc(-c2csc3nc(C)nc(Cl)c23)cc1OC and print it.
### Response -29.0

### Prompt Tell me its % inhibition female (individual replicates) R3 given CC(=O)Nc1ccc2[nH]cc(C3CCN(CC4CCC(NC(=O)/C=C/c5ccc(Cl)c(Cl)c5)CC4)CC3)c2n1 (stereo not drawn) as the entry.
### Response 29.8

### Prompt Provide % inhibition female (individual replicates) R3 value for the following compound: CN1CCCC1CCNCc1cccc(-c2cnc(N3CCCC(C)(C)C3)nc2)c1 (stereo not drawn)
### Response 21.4

### Prompt Report % inhibition female (individual replicates) R3 for CN(C)CCCNc1nccc(N(C)c2ccc(NC(=O)Nc3cc(C(F)(F)F)ccc3F)cc2)n1.O=C(O)C(F)(F)F
### Response 9.3

### Prompt Could you please provide reported % inhibition female (individual replicates) R3 for O=C(NCC1CCN(CCN2CCC(c3cn(CCO)c4ccccc34)CC2)CC1)c1ccc(-c2ccc(C(F)(F)F)cc2)cc1 ? Thanks!
### Response 27.5

### Prompt Hello, please tell me recorded % inhibition female (individual replicates) R3 for this one: COc1cccc(Cn2ccc3c4c(N)nc(N)nc4ccc32)c1
### Response 74.8

### Prompt Return the recorded % inhibition female (individual replicates) R3 value; entry: Cc1cc(F)ccc1-c1nc(NCCCNCCc2ccccc2)nc2c1ccc(=O)n2-c1c(F)cccc1F.O=C(O)C(F)(F)F
### Response 6.6

### Prompt Quick one: give measured % inhibition female (individual replicates) R3 for Br.CCCC1N=C(N)N=C(N)N1c1ccc(CC)cc1 (stereo not drawn)
### Response 10.4

### Prompt Specify % inhibition female (individual replicates) R3 for CCCCCCOc1ccc2ccccc2c1CNCCCCCCNCc1c(OCCCCCC)ccc2ccccc12.CS(=O)(=O)O and stop.
### Response 23.7

### Prompt Give recorded % inhibition female (individual replicates) R3. O=C(O)C(F)(F)F.Oc1ccc(CCNc2nc(NCCCOc3cc(CN4CCCCC4)ccc3F)nc(N3CCNCC3)n2)cc1
### Response -11.0

====

# System: P. falciparum female gametocytes
# protocol-notes: P. falciparum Dual Gamete Formation Assay (PfDGFA), female readout (Pfs25-positive female gametes)
# Assay type: cell-based, Plasmodium falciparum NF54
# condition-summary: 2µM, 24h preincubation with gametocytes prior to induction of gametogenesis; replicate R3
Parameter % inhibition female (individual replicates) R3: see the listing below.
Report the value in % with no unit label.

// worked examples, % inhibition female (individual replicates) R3 included
compound	reported
CC1(C)N=C(N)N=C(N)N1c1ccc(Br)cc1.Cl [TCMDC-123959]	12.6
O=C(O)C(F)(F)F.O=[N+]([O-])c1cccc(CNCC2CCN(Cc3ccc(-c4ccccc4)cc3)CC2)c1 [TCMDC-141208]	6.7
CC(Cc1ccc(CNC(=O)c2ccc(CC(C)NCCc3cccc(Cl)c3)cc2)cc1)NCCc1cccc(Cl)c1 (stereo not shown) [TCMDC-139659]	-19.4
COc1cc2ncnc(Nc3ccc(OCc4ccccc4)c(OCc4ccccc4)c3)c2cc1OC.Cl [TCMDC-131922]	31.5

### Prompt Indicate the recorded % inhibition female (individual replicates) R3 value for this compound: COc1ccc(CNC2CCN(C)CC2)cc1-c1ccc(S(=O)(=O)NC2CCC2)s1.O=C(O)C(F)(F)F [TCMDC-132254]
### Response 22.1

### Prompt Consider the compound CC(C)(C)c1ccc(-c2cc3c(ccc4nc(N)nc(N)c43)[nH]2)cc1 [TCMDC-137977] and give its recorded % inhibition female (individual replicates) R3.
### Response -16.6

### Prompt Quick one: give measured % inhibition female (individual replicates) R3 for Br.CC(C)(Cc1ccc(Cl)cc1)NCCCCCCNCCc1ccc(O)c(O)c1 [TCMDC-131277]
### Response 42.8

### Prompt Quote % inhibition female (individual replicates) R3 reported for O=C(C1CC1c1ccccc1)N(Cc1ccc(-c2ccc(CNCCc3ccccc3)cc2)cc1)C1CCNCC1.O=C(O)C(F)(F)F (stereo not shown) [TCMDC-141443] please.
### Response 29.6

### Prompt Answer with reported % inhibition female (individual replicates) R3 of CN(C)CCCOc1cccc(CCNCc2cccc(Oc3ccc(Cl)cc3)c2)c1.O=C(O)C(F)(F)F [TCMDC-140091]
### Response -0.66

### Prompt Indicate its recorded % inhibition female (individual replicates) R3; the compound in question is N=C(N)Nc1nc(-c2cccc(NC(=O)NCCc3c[nH]c4ccc(OCc5ccccc5)cc34)c2)cs1 [TCMDC-139557]
### Response -17.0

### Prompt Using known records, supply % inhibition female (individual replicates) R3 for Cc1cc2c3c(N)nc(N)nc3ccc2n1C [TCMDC-137957]
### Response 32.6

### Prompt Item Cc1cccc(-c2cccc(CNc3nc(NCCc4ccc(O)cc4)nc(N4CCNCC4)n3)c2)c1.O=C(O)C(F)(F)F [TCMDC-133810] : provide % inhibition female (individual replicates) R3
### Response -13.0

### Prompt Return % inhibition female (individual replicates) R3 (reported value) for this compound: CN1CCC(NCc2ccc(-c3ccc(S(=O)(=O)NCc4ccccc4)cc3)cc2)CC1.O=C(O)C(F)(F)F [TCMDC-132227]
### Response 31.6
